Measured protein stability index accompanies every entry in the list below.
B1: IRX6 (parent)
chain: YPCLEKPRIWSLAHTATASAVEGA

Variants of: B1
Assay: protein stability index of a GFP-peptide fusion (GPS, HEK-293T) (PSI 1-6); higher = more stable;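 further: lentivirally expressed fusions sorted by FACS into six bins by GFP to DsRed ratio, PSI derived from sequencing read proportions per bin multiplied by bin number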
Settings: c terminus: a fixed tail appended
propertyName: protein stability index

sequencevariant=A20K result=3.07
sequencevariant=A24Y result=3.06
sequencevariant=A18T result=3.02
sequencevariant=A24R result=2.99
